- runDescription: Cytotoxicity against human HDF cells assessed as cell growth inhibition incubated for 72 hrs by SRB assay
- Assay type: toxicity, cell-based
- experimentalParameters: HDF cells (normal human dermal fibroblasts, NHDF)
Labelling: IC50 at 72 h reported below 2000 nM becomes true (1); at or above becomes false (0).

- molecule: "CO[C@H]1/C=C\\C=C(/C)C(=O)NC2=CC(=O)C(NCc3cn([C@@H]4O[C@H](COCc5ccccc5)[C@@H](OCc5ccccc5)[C@H](OCc5ccccc5)[C@H]4NC(C)=O)nn3)=C(C[C@@H](C)C[C@H](OC)[C@H](O)[C@@H](C)/C=C(\\C)[C@@H]1OC(N)=O)C2=O"
  classLabel: "true (1)"
- molecule: "COC(=O)C[C@H]1O[C@@H](n2cc(CNC3=C4C[C@@H](C)C[C@H](OC)[C@H](O)[C@@H](C)/C=C(\\C)[C@H](OC(N)=O)[C@@H](OC)/C=C\\C=C(/C)C(=O)NC(=CC3=O)C4=O)nn2)[C@H](O)[C@@H](O)[C@@H]1O"
  classLabel: "false (0)"
- molecule: "CO[C@H]1/C=C\\C=C(/C)C(=O)NC2=CC(=O)C(NCCn3cc(C(=O)O)nn3)=C(C[C@@H](C)C[C@H](OC)[C@H](O)[C@@H](C)/C=C(\\C)[C@@H]1OC(N)=O)C2=O"
  classLabel: "true (1)"
- molecule: "CO[C@H]1/C=C\\C=C(/C)C(=O)NC2=CC(=O)C(NCc3cn(Cc4ccc(C#N)cc4)nn3)=C(C[C@@H](C)C[C@H](OC)[C@H](O)[C@@H](C)/C=C(\\C)[C@@H]1OC(N)=O)C2=O"
  classLabel: "true (1)"
- molecule: "C#CCNC1=C2C[C@@H](C)C[C@H](OC)[C@H](O)[C@@H](C)/C=C(\\C)[C@H](OC(N)=O)[C@@H](OC)/C=C\\C=C(/C)C(=O)NC(=CC1=O)C2=O"
  classLabel: "false (0)"
- molecule: "CO[C@H]1/C=C\\C=C(/C)C(=O)NC2=CC(=O)C(NCc3cn([C@@H]4OC[C@@H](OC(C)=O)[C@H](OC(C)=O)[C@H]4OC(C)=O)nn3)=C(C[C@@H](C)C[C@H](OC)[C@H](O)[C@@H](C)/C=C(\\C)[C@@H]1OC(N)=O)C2=O"
  classLabel: "false (0)"
- molecule: "CO[C@H]1/C=C\\C=C(/C)C(=O)NC2=CC(=O)C(NCc3cn(Cc4ccc(Br)cc4)nn3)=C(C[C@@H](C)C[C@H](OC)[C@H](O)[C@@H](C)/C=C(\\C)[C@@H]1OC(N)=O)C2=O"
  classLabel: "true (1)"
- molecule: "CO[C@H]1/C=C\\C=C(/C)C(=O)NC2=CC(=O)C(NCc3cn(CCCOS(=O)(=O)c4ccc(C)cc4)nn3)=C(C[C@@H](C)C[C@H](OC)[C@H](O)[C@@H](C)/C=C(\\C)[C@@H]1OC(N)=O)C2=O"
  classLabel: "true (1)"
- molecule: "CO[C@H]1/C=C\\C=C(/C)C(=O)NC2=CC(=O)C(NCc3cn(CC4CCOCC4)nn3)=C(C[C@@H](C)C[C@H](OC)[C@H](O)[C@@H](C)/C=C(\\C)[C@@H]1OC(N)=O)C2=O"
  classLabel: "true (1)"

* * *

- runDescription: Cytotoxicity against human HDF cells assessed as cell growth inhibition incubated for 72 hrs by SRB assay
- Type: toxicity, cell-based
- experimentalParameters: HDF cells (normal human dermal fibroblasts, NHDF)

- molecule: "CO[C@H]1/C=C\\C=C(/C)C(=O)NC2=CC(=O)C(NCc3cn(Cc4ccccc4I)nn3)=C(C[C@@H](C)C[C@H](OC)[C@H](O)[C@@H](C)/C=C(\\C)[C@@H]1OC(N)=O)C2=O"
  IC50 at 72 h / µM: 0.97
- molecule: "CO[C@H]1/C=C\\C=C(/C)C(=O)NC2=CC(=O)C(NCCN=[N+]=[N-])=C(C[C@@H](C)C[C@H](OC)[C@H](O)[C@@H](C)/C=C(\\C)[C@@H]1OC(N)=O)C2=O"
  IC50 at 72 h / µM: 2.06
- molecule: "CO[C@H]1/C=C\\C=C(/C)C(=O)NC2=CC(=O)C(NCc3cn(CC=C(C)C)nn3)=C(C[C@@H](C)C[C@H](OC)[C@H](O)[C@@H](C)/C=C(\\C)[C@@H]1OC(N)=O)C2=O"
  IC50 at 72 h / µM: 3.18

* * *

Listing: pIC50 of selected molecules
- Test system: PC-3
- runDescription: Anticancer activity against human PC-3 cells assessed as cell growth inhibition incubated for 72 hrs by SRB assay
- Assay type: functional, cell-based
- experimentalParameters: Homo sapiens, PC-3, 72 h
pIC50: −log10 of the molar value.

- molecule: "CO[C@H]1/C=C\\C=C(/C)C(=O)NC2=CC(=O)C(NCCn3cc(-c4ccccn4)nn3)=C(C[C@@H](C)C[C@H](OC)[C@H](O)[C@@H](C)/C=C(\\C)[C@@H]1OC(N)=O)C2=O"
  target: "PC-3"
  pIC50: 5.92
- molecule: "CO[C@H]1/C=C\\C=C(/C)C(=O)NC2=CC(=O)C(NCc3cn(Cc4ccc(C#N)cc4)nn3)=C(C[C@@H](C)C[C@H](OC)[C@H](O)[C@@H](C)/C=C(\\C)[C@@H]1OC(N)=O)C2=O"
  target: "PC-3"
  pIC50: 6.07
- molecule: "CO[C@H]1/C=C\\C=C(/C)C(=O)NC2=CC(=O)C(NCc3cn(Cc4ccc(F)cc4)nn3)=C(C[C@@H](C)C[C@H](OC)[C@H](O)[C@@H](C)/C=C(\\C)[C@@H]1OC(N)=O)C2=O"
  target: "PC-3"
  pIC50: 5.80
- molecule: "CO[C@H]1/C=C\\C=C(/C)C(=O)NC2=CC(=O)C(NCCn3cc(-c4ccsc4)nn3)=C(C[C@@H](C)C[C@H](OC)[C@H](O)[C@@H](C)/C=C(\\C)[C@@H]1OC(N)=O)C2=O"
  target: "PC-3"
  pIC50: 6.00
- molecule: "CO[C@H]1/C=C\\C=C(/C)C(=O)NC2=CC(=O)C(NCCN=[N+]=[N-])=C(C[C@@H](C)C[C@H](OC)[C@H](O)[C@@H](C)/C=C(\\C)[C@@H]1OC(N)=O)C2=O"
  target: "PC-3"
  pIC50: 6.04
- molecule: "CO[C@H]1/C=C\\C=C(/C)C(=O)NC2=CC(=O)C(NCc3cn([C@@H]4O[C@H](COCc5ccccc5)[C@@H](OCc5ccccc5)[C@H](OCc5ccccc5)[C@H]4NC(C)=O)nn3)=C(C[C@@H](C)C[C@H](OC)[C@H](O)[C@@H](C)/C=C(\\C)[C@@H]1OC(N)=O)C2=O"
  target: "PC-3"
  pIC50: 6.03
- molecule: "CO[C@H]1/C=C\\C=C(/C)C(=O)NC2=CC(=O)C(NCc3cn(Cc4ccc([N+](=O)[O-])cc4)nn3)=C(C[C@@H](C)C[C@H](OC)[C@H](O)[C@@H](C)/C=C(\\C)[C@@H]1OC(N)=O)C2=O"
  target: "PC-3"
  pIC50: 6.16
- molecule: "CO[C@H]1/C=C\\C=C(/C)C(=O)NC2=CC(=O)C(NCc3cn(C/C=C/c4ccccc4)nn3)=C(C[C@@H](C)C[C@H](OC)[C@H](O)[C@@H](C)/C=C(\\C)[C@@H]1OC(N)=O)C2=O"
  target: "PC-3"
  pIC50: 5.95
- molecule: "CO[C@H]1/C=C\\C=C(/C)C(=O)NC2=CC(=O)C(NCc3cn(CC4OCCO4)nn3)=C(C[C@@H](C)C[C@H](OC)[C@H](O)[C@@H](C)/C=C(\\C)[C@@H]1OC(N)=O)C2=O"
  target: "PC-3"
  pIC50: 5.75
- molecule: "CO[C@H]1/C=C\\C=C(/C)C(=O)NC2=CC(=O)C(NCc3cn(Cc4ccsc4Br)nn3)=C(C[C@@H](C)C[C@H](OC)[C@H](O)[C@@H](C)/C=C(\\C)[C@@H]1OC(N)=O)C2=O"
  target: "PC-3"
  pIC50: 5.95

* * *

Listing: IC50 of selected molecules
- Test system: PC-3
- runDescription: Anticancer activity against human PC-3 cells assessed as cell growth inhibition incubated for 72 hrs by SRB assay
- Type: functional, cell-based
- experimentalParameters: Homo sapiens, PC-3, 72 h

- molecule: "CO[C@H]1/C=C\\C=C(/C)C(=O)NC2=CC(=O)C(NCc3cn(Cc4ccc(Br)cc4)nn3)=C(C[C@@H](C)C[C@H](OC)[C@H](O)[C@@H](C)/C=C(\\C)[C@@H]1OC(N)=O)C2=O"
  IC50: "310 nM"
- molecule: "CCN(CC)CCn1cc(CNC2=C3C[C@@H](C)C[C@H](OC)[C@H](O)[C@@H](C)/C=C(\\C)[C@H](OC(N)=O)[C@@H](OC)/C=C\\C=C(/C)C(=O)NC(=CC2=O)C3=O)nn1"
  IC50: "510 nM"
- molecule: "CO[C@H]1/C=C\\C=C(/C)C(=O)NC2=CC(=O)C(NCc3c[nH]nn3)=C(C[C@@H](C)C[C@H](OC)[C@H](O)[C@@H](C)/C=C(\\C)[C@@H]1OC(N)=O)C2=O"
  IC50: "690 nM"
- molecule: "CO[C@H]1/C=C\\C=C(/C)C(=O)NC2=CC(=O)C(NCc3cn(Cc4ccc([N+](=O)[O-])o4)nn3)=C(C[C@@H](C)C[C@H](OC)[C@H](O)[C@@H](C)/C=C(\\C)[C@@H]1OC(N)=O)C2=O"
  IC50: "2150 nM"
- molecule: "CO[C@H]1/C=C\\C=C(/C)C(=O)NC2=CC(=O)C(NCc3cn([C@@H]4O[C@H](COC(C)=O)[C@H](OC(C)=O)[C@H](OC(C)=O)[C@H]4OC(C)=O)nn3)=C(C[C@@H](C)C[C@H](OC)[C@H](O)[C@@H](C)/C=C(\\C)[C@@H]1OC(N)=O)C2=O"
  IC50: "910 nM"
